Recorded values, source ChEMBL document CHEMBL1201862.

# Tested on: KM12
# Measurement description: NCI tumour cell line growth inhibition, 48 h
Active and inactive are the calls of the source. Rule as the data show it: active = GI50 up to about 1.1 µM and inactive = higher.
Classes used: True = active, False = inactive

Compound	Label class
O=c1c(Cc2ccc(Cl)cc2)nnc2sc(-c3ccc([N+](=O)[O-])cc3)nn12	False
C=C1C(=O)C23CC1C[C@H](OC(C)=O)[C@H]2C1(C)C(OC(C)=O)C[C@H](O)C(C)(C)[C@H]1C(=O)[C@@H]3OC(C)=O (some centres undefined)	False
COc1ccc(/C=C2\C(=O)N(C(=O)Cc3ccccc3)N=C2C)cc1OC	False
O=C(c1ccc(O)cc1)C1c2c3c(cc(O)c2C(c2ccc(O)cc2)C1c1cc(O)cc(O)c1)OC(c1ccc(O)cc1)C3c1cc2c(cc1O)OC(c1ccc(O)cc1)C2c1cc(O)cc(O)c1 (centres undefined)	False
CC1(C)CC2(C)CC1CC2(O)c1ccccc1 (centres undefined)	False
C[N+](C)(Cc1ccc(NC(=O)CCCC(=O)ON2C(=O)CCC2=O)cc1)c1ccccc1	True
CO[C@@H]1[C@@H](OC2OC(C)C(OC3CC(C)(O)C(OC(=O)CC(C)C)C(C)O3)C(N(C)C)C2O)[C@@H](CC=O)C[C@@H](C)C(=O)/C=C/C2O[C@H]2C[C@@H](C)OC(=O)C[C@H]1OC(C)=O (some centres undefined)	False
CC(O)CNC1=CC(=O)C(=O)c2ccccc21 (centres undefined)	False
Nc1ncnc2c1ncn2[C@@H]1O[C@H](COP(=O)(O)O)[C@@H](O)[C@@H]1O	False
CCOP(=O)(OCC)C1=NC=CC=CC1n1c(-c2ccccc2)nn(CC)c1=O (centres undefined)	False
CCCCc1ccc(N2C(=O)c3cc(C)cnc3S2(=O)=O)cc1	False
N#CCCN(c1ccc(-c2nnc(NC(=O)CNNC(=O)CC(=O)Nc3ccccc3)s2)cc1)S(=O)(=O)c1ccccc1	False
C#CCN(CC#C)C(=O)C(=O)c1c[nH]c2ccc(OC)cc12	False
COC1=CC(=O)c2c(c(-c3csc(C)n3)cn2C)C1=O	False
COc1cc(N/N=C/C#N)cc(OC)c1OC	False
CCCCCC/C(CC(=O)CCC(=O)NCCc1ccccc1)=N\NC(=O)c1ccc2ccccc2c1O	False
CCCCn1c(N)c(-c2nc3ccccc3o2)sc1=S	False
CCOC(=O)c1cc(C2CCN(CC(C)CC)C2=S)c(-c2cc(C)no2)[nH]1 (centres undefined)	False
Cc1cc(N)ccc1/N=N\c1ccc(S(=O)(=O)CCOS(=O)(=O)O)cc1	False
